assay: pGa calculation (ligand sequestering ability); assay type: physicochemical; settings: pGa = −log[Ga(III)free], pH 7.4, cL = 10 μM, cGa(III) = 1 μM
ASSAY READOUT: pGa

Form field pGa, entry N[C@H]1CCCCNC(=O)CCCN(O)C(=O)CCCNC(=O)CCCN(O)C(=O)CCCNC(=O)CCCN(O)C(=O)CCCNC(=O)CCCN(O)C(=O)CCCNC1=O : 22.3

Lab note: measured pGa of O=C1CCCCCN(O)C(=O)CCNC(=O)CCCCCN(O)C(=O)CCNC(=O)CCCCCN(O)C(=O)CCN1 was 25.4

Record O=C1CCCN(O)C(=O)CCCNC(=O)CCCN(O)C(=O)CCCNC(=O)CCCN(O)C(=O)CCCN1 . Reported pGa: 22.5

// sample CN(O)C(=O)CCC(=O)NCCOCC(C)(COCCNC(=O)CCC(=O)N(C)O)COCCNC(=O)CCC(=O)N(C)O , its pGa was 21.9
